- Target: human M4 muscarinic acetylcholine receptor (Homo sapiens, UniProt P08173)
- Measurement Protocol: human FLIPR-based M4 PAM assay (CHO-K1 cells with human M4 receptor and Gαqi5, calcium dye fluorescence, EC20 acetylcholine)
- Measurement Context: inflection point (IP) of the dose response curve, human M4 receptor/Gαqi5, acetylcholine at 20% of maximum response, read-out: M4PAM Hu IP
Assay Metric: EC50 (nM)

Examples from the recorded data:
CC(C)(CCn1cc(-c2ccc(C#N)nc2-c2ccc3cccnc3c2)cn1)C(F)(F)F; 190
COc1cc2ccc(-c3nc(C)ccc3-c3cnn(CC(C)(C)F)c3)cc2nn1; 191
CC1(C)CC1Cn1cc(-c2ccc(C#N)nc2-c2ccc3cccnc3c2)cn1 (stereo not shown); 45

[1] N#CCC1(Cn2cc(-c3ccc(C#N)nc3-c3ccc4cccnc4c3)cn2)CC1
[2] CC(C)CCn1cc(-c2ccc(Br)nc2-c2ccc3cccnc3c2)cn1
[in] Pick one, 1 or 2 : lowest reported EC50. Pick one and reply with its label.
[out] 2

[P] Cc1ccnc(-c2ccc3cccnc3c2)c1-c1cnn(CCC(C)C)c1
[Q] N#Cc1ccc(-c2cnn(CC(F)(F)C(F)F)c2)c(-c2ccc3cccnc3c2)n1
[R] COc1cc2ccc(-c3nc(C)ccc3-c3cnn(CC45CC6CC(CC(C6)C4)C5)c3)cc2nn1
[S] COc1cc2ccc(-c3nc(C)ccc3-c3cnn(CC4CCC4)c3)cc2nn1
[in] Order the 4 compounds from highest to lowest EC50. Returns: the labels listed in the requested order.
[out] P, Q, S, R
(P: 188 nM, Q: 131 nM, S: 72 nM, R: 37 nM)

[P] COc1cc2ccc(-c3nc(C)ccc3-c3cnn(Cc4ccccc4)c3)cc2nn1
[Q] CC(C)(C)Cn1cc(-c2ccc(C#N)nc2-c2ccc3cc(Cl)nnc3c2)cn1
[R] COc1cc2ccc(-c3nc(C)ccc3-c3cnn(CCC4CC(F)(F)C4)c3)cc2nn1
[S] CC(C)(Cn1cc(-c2ccc(C#N)nc2-c2ccc3cccnc3c2)cn1)C(F)F
[in] Number of compounds to sort: 4. Sort criterion: EC50, ascending. Returns: the labels listed in the requested order.
[out] S, Q, P, R

* * *

- Target: human M4 muscarinic acetylcholine receptor (Homo sapiens, UniProt P08173)
- Sequence (P08173 1-479): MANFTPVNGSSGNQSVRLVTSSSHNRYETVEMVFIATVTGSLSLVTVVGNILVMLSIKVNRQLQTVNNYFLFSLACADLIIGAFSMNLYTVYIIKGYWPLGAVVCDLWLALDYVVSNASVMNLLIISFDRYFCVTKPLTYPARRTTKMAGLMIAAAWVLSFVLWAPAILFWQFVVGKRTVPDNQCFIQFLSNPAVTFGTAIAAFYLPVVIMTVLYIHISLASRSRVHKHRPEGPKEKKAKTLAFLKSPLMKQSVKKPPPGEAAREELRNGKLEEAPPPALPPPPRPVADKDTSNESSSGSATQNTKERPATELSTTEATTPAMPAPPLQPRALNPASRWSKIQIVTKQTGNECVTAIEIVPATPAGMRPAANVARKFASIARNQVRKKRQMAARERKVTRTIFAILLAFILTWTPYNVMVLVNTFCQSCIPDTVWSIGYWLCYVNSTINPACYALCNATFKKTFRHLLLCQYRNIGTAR
- Measurement Protocol: human FLIPR-based M4 PAM assay (CHO-K1 cells with human M4 receptor and Gαqi5, calcium dye fluorescence, EC20 acetylcholine)
- Measurement Context: inflection point (IP) of the dose response curve, human M4 receptor/Gαqi5, acetylcholine at 20% of maximum response, read-out: M4PAM Hu IP
pEC50: −log10 of the molar value.
Assay Metric: pEC50

COc1cc2ccc(-c3nc(C#N)ccc3-c3cnn(CC(C)(C)C)c3)cc2nn1 [Example 38]; 7.39
COc1cc2ccc(-c3nc(C)ccc3-c3cnn(CCCC(F)=C(F)F)c3)cc2nn1 [Example 80]; 6.81
COc1cc2ccc(-c3nc(C#N)ccc3-c3cnn(CC(F)(F)C(F)(F)F)c3)cc2nn1 [Example 112]; 6.86

[P] CC(C)CCn1cc(-c2ccc(C3=CCOCC3)nc2-c2ccc3cccnc3c2)cn1 [Example 67]
[Q] CC(C)(Cn1cc(-c2ccc(C#N)nc2-c2ccc3cccnc3c2)cn1)C(F)(F)F [Example 88]
[R] COc1cc2ccc(-c3nc(Cl)c(C)cc3-c3cnn(CC(C)(C)OC)c3)cc2nn1 [Example 31]
[in] Number of molecules to sort: 3. Sort criterion: pEC50, ascending. Returns: the labels listed in the requested order.
[out] P, R, Q
(P: 6.92, R: 7.12, Q: 7.36)
